// provenance: patent US9884836B2

Biological target: 5-HT2B receptor (Homo sapiens, UniProt P41595)
Sequence (P41595 whole entry): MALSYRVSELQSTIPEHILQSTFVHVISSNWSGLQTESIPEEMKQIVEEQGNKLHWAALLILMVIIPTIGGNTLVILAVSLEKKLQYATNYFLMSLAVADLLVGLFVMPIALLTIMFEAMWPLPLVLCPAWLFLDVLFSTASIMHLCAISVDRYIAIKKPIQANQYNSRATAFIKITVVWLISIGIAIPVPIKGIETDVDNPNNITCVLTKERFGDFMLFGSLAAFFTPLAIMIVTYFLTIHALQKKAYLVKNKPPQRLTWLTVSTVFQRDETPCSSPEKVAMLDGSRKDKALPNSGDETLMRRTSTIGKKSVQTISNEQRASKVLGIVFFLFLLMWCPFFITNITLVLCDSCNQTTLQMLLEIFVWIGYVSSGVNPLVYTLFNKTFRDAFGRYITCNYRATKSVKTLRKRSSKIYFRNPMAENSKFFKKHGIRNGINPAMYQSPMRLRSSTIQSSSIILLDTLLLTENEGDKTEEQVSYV
Experiment: Binding affinity (pKi) by competitive inhibition of [3H]LSD at 5-HT2B
Conditions: pKi at 5-HT2B, Table 7
Measured endpoint: Ki (nM)
State the answer as a number, implicitly in nM.

Before answering, review these 2 worked examples.
{"Compound": "O=c1cc(CCc2cccc(O)c2)oc2cccc(O)c12 [Compound 22c]", "Measure unit": "nM", "Assay result": 1290}
{"Compound": "O=c1cc(CCc2cccs2)oc2cccc(O)c12 [Compound 22e]", "Measure unit": "nM", "Assay result": 1050}

Form field: reported Ki of O=c1cc(CCCc2ccccc2)oc2cccc(O)c12 [Compound 22h] 240

Also, O=c1cc(CCc2ccco2)oc2cccc(O)c12 [Compound 22f] please. 1820

Also, O=c1cc(COCCc2ccccc2)oc2cccc(O)c12 [Compound 22s, 5-hydroxy-2-(phenethoxymethyl)chromone] please. 1260

###

Target: 5-HT2C (Homo sapiens)
Sequence (P28335 33-458, species assumed): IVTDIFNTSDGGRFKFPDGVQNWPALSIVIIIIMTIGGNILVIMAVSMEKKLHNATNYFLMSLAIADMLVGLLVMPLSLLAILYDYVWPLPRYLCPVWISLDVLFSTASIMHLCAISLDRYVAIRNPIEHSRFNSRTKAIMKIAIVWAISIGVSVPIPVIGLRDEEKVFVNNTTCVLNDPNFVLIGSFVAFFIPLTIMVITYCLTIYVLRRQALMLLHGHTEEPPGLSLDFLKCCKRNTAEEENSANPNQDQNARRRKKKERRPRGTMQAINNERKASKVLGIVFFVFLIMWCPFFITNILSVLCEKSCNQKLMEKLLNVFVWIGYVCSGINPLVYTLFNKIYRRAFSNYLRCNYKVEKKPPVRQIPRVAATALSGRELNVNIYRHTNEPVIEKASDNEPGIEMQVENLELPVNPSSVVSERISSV
Experiment: Primary screening: inhibition of radioligand binding at 5-HT2C (NIMH PDSP)
Conditions: read-out: % Inhibition 5-HT2C
Short version: inhibition at 10 µM at least 10% is 1.0, less is 0.0.

Study these solved cases before continuing.
{"Compound": "O=c1cc(COc2ccccc2)oc2cccc(O)c12 [Compound 22a]", "Assayed target": "5-HT2C (Homo sapiens)", "Category": 0.0}
{"Compound": "O=c1cc(CCc2cccs2)oc2cccc(O)c12 [Compound 22e]", "Assayed target": "5-HT2C (Homo sapiens)", "Category": 1.0}

Identify whether the reported inhibition at 10 µM of the following compound is 10% or greater: O=c1cc(CCCc2ccccc2)oc2cccc(O)c12 [Compound 22h] 0.0

Also, O=c1cc(Cc2cccs2)oc2cccc(O)c12 [Compound 22r] please. 1.0

Also, O=c1cc(CCCCc2ccccc2)oc2cccc(O)c12 [Compound 22i] please. 1.0

Also, O=c1cc(Cc2ccccc2)oc2cccc(O)c12 [Compound 22g, 2-benzyl-5-hydroxy-4H-chromen-4-one] please. 1.0

###

Overview of reported inhibition at 10 µM across a group of compounds:
Molecular target: 5-HT2C (Homo sapiens)
Assay: Primary screening: inhibition of radioligand binding at 5-HT2C (NIMH PDSP)
Conditions: read-out: % Inhibition of radioligand binding 5-HT2C
State the answer as a number, implicitly in %.

Before answering, review these 3 worked examples.
{"Compound": "O=c1cc(CC(O)c2ccccc2)oc2cc(O)ccc12 (stereo not shown) [Compound 22l]", "Assayed target": "5-HT2C (Homo sapiens)", "Assay result": 44}
{"Compound": "O=c1cc(COCc2ccccc2)oc2cccc(O)c12 [Compound 22j, 5-hydroxy-2-((benzyloxy)methyl)chromone]", "Assayed target": "5-HT2C (Homo sapiens)", "Assay result": 42.1}
{"Compound": "O=c1cc(CCc2cccs2)oc2cccc(O)c12 [Compound 22e]", "Assayed target": "5-HT2C (Homo sapiens)", "Assay result": 19.6}

Form field: reported inhibition at 10 µM of O=c1cc(COc2ccc3ccccc3c2)oc2cccc(O)c12 [Compound 22o] -0.7

Also, O=c1cc(Cc2cccc3ccccc23)oc2cccc(O)c12 [Compound 22q] please. 2.1

Also, O=c1cc(COc2ccccc2)oc2cccc(O)c12 [Compound 22a] please. 7

Also, O=c1cc(CCCCc2ccccc2)oc2cccc(O)c12 [Compound 22i] please. 14.7

Also, O=c1cc(COc2cccc3ccccc23)oc2cccc(O)c12 [Compound 22p] please. 0.7

Also, O=c1cc(COCCc2ccccc2)oc2cccc(O)c12 [Compound 22s, 5-hydroxy-2-(phenethoxymethyl)chromone] please. 11.7

Also, O=c1cc(CCc2ccc(O)cc2)oc2cc(O)ccc12 [Compound 22n] please. 53.1

###

Overview of reported inhibition at 10 µM across a group of molecules:
Biological target: 5-HT2A (Homo sapiens, UniProt P28223)
Sequence (P28223 whole entry, species assumed): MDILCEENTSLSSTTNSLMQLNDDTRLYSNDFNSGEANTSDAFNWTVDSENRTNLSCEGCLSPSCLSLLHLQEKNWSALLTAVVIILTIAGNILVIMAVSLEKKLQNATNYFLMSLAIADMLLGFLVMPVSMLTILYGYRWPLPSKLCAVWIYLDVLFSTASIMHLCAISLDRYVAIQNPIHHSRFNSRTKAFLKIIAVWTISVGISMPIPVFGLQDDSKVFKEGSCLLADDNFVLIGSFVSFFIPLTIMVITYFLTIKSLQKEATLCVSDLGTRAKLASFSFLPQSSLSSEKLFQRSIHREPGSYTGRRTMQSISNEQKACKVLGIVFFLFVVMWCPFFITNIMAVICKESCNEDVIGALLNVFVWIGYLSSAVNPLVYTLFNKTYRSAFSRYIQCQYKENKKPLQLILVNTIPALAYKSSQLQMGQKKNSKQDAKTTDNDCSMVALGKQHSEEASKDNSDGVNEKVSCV
Experiment: Primary screening: inhibition of radioligand binding at 5-HT2A (NIMH PDSP)
Conditions: read-out: % Inhibition of radioligand binding 5-HT2A
State the answer as a number, implicitly in %.

Before answering, review these 3 worked examples.
{"Molecule": "O=c1cc(Cc2cccs2)oc2cccc(O)c12 [Compound 22r]", "Measure unit": "%", "Assay result": -4.5}
{"Molecule": "O=c1cc(CCc2cccc(O)c2)oc2cccc(O)c12 [Compound 22c]", "Measure unit": "%", "Assay result": 39}
{"Molecule": "O=c1cc(COc2ccc3ccccc3c2)oc2cccc(O)c12 [Compound 22o]", "Measure unit": "%", "Assay result": -3}

Form field: reported inhibition at 10 µM of O=c1cc(COCc2ccccc2)oc2cccc(O)c12 [Compound 22j, 5-hydroxy-2-((benzyloxy)methyl)chromone] 3.2

Also, O=c1cc(CC(O)c2ccccc2)oc2cc(O)ccc12 (stereo not drawn) [Compound 22l] please. 47.9

Also, O=c1cc(CCc2ccco2)oc2cccc(O)c12 [Compound 22f] please. 12.4

Also, O=c1cc(COc2cccc3ccccc23)oc2cccc(O)c12 [Compound 22p] please. -1.1

Also, O=c1cc(CCCc2ccccc2)oc2cccc(O)c12 [Compound 22h] please. 5.4

Also, O=c1cc(CCc2cccc(O)c2)oc2cc(O)ccc12 [Compound 22m] please. 23.2

Also, O=c1cc(CCc2ccccc2)oc2cc(O)ccc12 [Compound 22k, 7-hydroxy-2-phenethyl-4H-chromen-4-one] please. 35.5

Also, O=c1cc(CCc2cccs2)oc2cccc(O)c12 [Compound 22e] please. 1.4

Also, O=c1cc(COCCc2ccccc2)oc2cccc(O)c12 [Compound 22s, 5-hydroxy-2-(phenethoxymethyl)chromone] please. 0.3

Also, O=c1cc(CCCCc2ccccc2)oc2cccc(O)c12 [Compound 22i] please. 5.7

Also, O=c1cc(CCc2ccccc2O)oc2cccc(O)c12 [Compound 22b] please. 24.3

Also, O=c1cc(Cc2cccc3ccccc23)oc2cccc(O)c12 [Compound 22q] please. 9.5

Also, O=c1cc(Cc2ccccc2)oc2cccc(O)c12 [Compound 22g, 2-benzyl-5-hydroxy-4H-chromen-4-one] please. 1.4

Also, O=c1cc(CCc2ccc(O)cc2)oc2cc(O)ccc12 [Compound 22n] please. 33.3

Also, O=c1cc(COc2ccccc2)oc2cccc(O)c12 [Compound 22a] please. 0.2

###

Molecular target: 5-HT2A (Homo sapiens, UniProt P28223)
Assay: Primary screening: inhibition of radioligand binding at 5-HT2A (NIMH PDSP)
Conditions: read-out: % Inhibition 5-HT2A
Overview of reported inhibition at 10 µM across a group of compounds:
State the answer as a number, implicitly in %.

Before answering, review these 5 worked examples.
{"Compound": "O=c1cc(Cc2ccccc2)oc2cccc(O)c12 [Compound 22g, 2-benzyl-5-hydroxy-4H-chromen-4-one]", "Assayed target": "5-HT2A (Homo sapiens, UniProt P28223)", "inhibition at 10 µM [%]": 1.4}
{"Compound": "O=c1cc(COc2ccccc2)oc2cccc(O)c12 [Compound 22a]", "Assayed target": "5-HT2A (Homo sapiens, UniProt P28223)", "inhibition at 10 µM [%]": 0.2}
{"Compound": "O=c1cc(Cc2cccs2)oc2cccc(O)c12 [Compound 22r]", "Assayed target": "5-HT2A (Homo sapiens, UniProt P28223)", "inhibition at 10 µM [%]": -4.5}
{"Compound": "O=c1cc(CCc2cccs2)oc2cccc(O)c12 [Compound 22e]", "Assayed target": "5-HT2A (Homo sapiens, UniProt P28223)", "inhibition at 10 µM [%]": 1.4}
{"Compound": "O=c1cc(CCCCc2ccccc2)oc2cccc(O)c12 [Compound 22i]", "Assayed target": "5-HT2A (Homo sapiens, UniProt P28223)", "inhibition at 10 µM [%]": 5.7}

As a next step, examine the compound that follows.
Form field: reported inhibition at 10 µM of O=c1cc(CCCc2ccccc2)oc2cccc(O)c12 [Compound 22h] 5.4

###

Target: UniProtKB P28335
Assay: Binding affinity (pKi) at 5-HT2C
Settings: Table 7
Measured endpoint: pKi
In plain terms, pKi is the concentration in mol/L turned into minus its base-10 logarithm.

Form field: reported pKi of O=c1cc(CCc2ccc(O)cc2)oc2cc(O)ccc12 [Compound 22n] 5.61

###

Target: 5-HT2B receptor (Homo sapiens, UniProt P41595)
Assay: Binding affinity (pKi) by competitive inhibition of [3H]LSD at 5-HT2B
Details: pKi at 5-HT2B
Measured endpoint: pKi
In plain terms, pKi is the concentration in mol/L turned into minus its base-10 logarithm.

Form field: reported pKi of O=c1cc(CCc2cccs2)oc2cccc(O)c12 [Compound 22e] 5.90

###

Target: 5-HT2B receptor (Homo sapiens, UniProt P41595)
Experiment: Primary screening: inhibition of radioligand binding at 5-HT2B (NIMH PDSP)
Settings: read-out: % Inhibition of radioligand binding 5-HT2B
Measured endpoint: inhibition at 10 µM (%)
State the answer as a number, implicitly in %.

{"Compound": "O=c1cc(COc2ccc3ccccc3c2)oc2cccc(O)c12 [Compound 22o]", "inhibition at 10 µM (%)": 2.9}
{"Compound": "O=c1cc(CCc2ccccc2)oc2cc(O)ccc12 [Compound 22k, 7-hydroxy-2-phenethyl-4H-chromen-4-one]", "inhibition at 10 µM (%)": 34.2}
{"Compound": "O=c1cc(CCc2ccco2)oc2cccc(O)c12 [Compound 22f]", "inhibition at 10 µM (%)": 68.8}
{"Compound": "O=c1cc(CC(O)c2ccccc2)oc2cc(O)ccc12 (stereo not drawn) [Compound 22l]", "inhibition at 10 µM (%)": 16.6}
{"Compound": "O=c1cc(CCc2cccc(O)c2)oc2cccc(O)c12 [Compound 22c]", "inhibition at 10 µM (%)": 76.3}
{"Compound": "O=c1cc(CCc2cccc(O)c2)oc2cc(O)ccc12 [Compound 22m]", "inhibition at 10 µM (%)": 25.3}
{"Compound": "O=c1cc(CCc2ccccc2O)oc2cccc(O)c12 [Compound 22b]", "inhibition at 10 µM (%)": 12.8}
{"Compound": "O=c1cc(CCCc2ccccc2)oc2cccc(O)c12 [Compound 22h]", "inhibition at 10 µM (%)": 70.4}

Form field: reported inhibition at 10 µM of O=c1cc(COCCc2ccccc2)oc2cccc(O)c12 [Compound 22s, 5-hydroxy-2-(phenethoxymethyl)chromone] 77.7

Also, O=c1cc(Cc2ccccc2)oc2cccc(O)c12 [Compound 22g, 2-benzyl-5-hydroxy-4H-chromen-4-one] please. 30.6

Also, O=c1cc(CCc2ccc(O)cc2)oc2cc(O)ccc12 [Compound 22n] please. 40.8

Also, O=c1cc(Cc2cccc3ccccc23)oc2cccc(O)c12 [Compound 22q] please. 17.4

Also, O=c1cc(COCc2ccccc2)oc2cccc(O)c12 [Compound 22j, 5-hydroxy-2-((benzyloxy)methyl)chromone] please. 77.7

Also, O=c1cc(CCCCc2ccccc2)oc2cccc(O)c12 [Compound 22i] please. 45.2

Also, O=c1cc(Cc2cccs2)oc2cccc(O)c12 [Compound 22r] please. 31.5

Also, O=c1cc(COc2cccc3ccccc23)oc2cccc(O)c12 [Compound 22p] please. 11.8

Also, O=c1cc(CCc2cccs2)oc2cccc(O)c12 [Compound 22e] please. 74.8

Also, O=c1cc(COc2ccccc2)oc2cccc(O)c12 [Compound 22a] please. 50
